tested on: K4 kissing-loop RNA reporter; assay: apparent KD of K4 kissing-loop reporter; higher = weaker reporter binding; conditions: Eterna round: R107; input ligand: none
Parameter threshold = 0.2 µM. Response is TRUE when apparent KD of K4 kissing-loop reporter meets or exceeds it, else FALSE.

Take a look at these entries with their results.
{"columns": ["sequence-chain", "discrete-label"],
 "data": [
  ["UGUCUACCGGGAAGGAGCGUGAAUGAUAAUGGAUAUAGUGAUGUUAUAUAUACGAACGAAUCGCAGGUAGGUCGCCCGGAUCCCU [SSArgB.W]", "TRUE"],
  ["AAGGUCACUACUACAGUGAUGUUGUGGGAGCAGGAUAUGCAGAAAUGCAGAAGGGCUCGCUCCAAGUGACCGAAUGAAACAUUCA [Omei KL FMN A SS A v1]", "TRUE"],
  ["UGUCAUUGGUCGGCCGCCACUUGAAGGUCAAAGACCAUAGAGUGAUGUUCUAAGACGAAAGUCACAAGGACCGGGACCGAUGACU [TrypBS 3 #SwitchBubble #K4Middle]", "FALSE"],
  ["CUCCUUGGCUAAGGAUAUCGUAGUGAUGUUAUGGUCUUUGCUAAGACUUCUGAUAUUGAAUUCCGACGAGAAGGUAGAAGGACGG [theeternabot_exclusion_KL_FMN_B_18]", "TRUE"],
  ["CUUCGAUUAACAGAUACCAGUCACUUGGGAGCCACACACAAGUGAGUGAUGUUCACUUGUGACCCUUGGCAGCUGUUAGUCGAAG [#04 K4 Theophylline B Exclusion]", "FALSE"],
  ["CUUGUACAUGCCGAGGUAGGUGCGGGUUAGCGAGGACCGGUACGGCCGCCACUCGCCAAGUGAUGUUUGGUCCUUUGGAUCGGCA", "TRUE"]
]}

Now consider the entry below.
-- ask Can GCUAUGGUAGGAAGGAGCGCUUGCUCGGUCAUAUGAGUGAUGUUCGAGACCGAGCAUUUAUAGCAGGUAGGUCGCCUACUAUAGC [Arginine B K4 8] be said to have apparent KD of K4 kissing-loop reporter at or above 0.2 µM?
-- reply FALSE

* * *

system: K4 kissing-loop RNA reporter; assay: apparent KD of K4 kissing-loop reporter; higher = weaker reporter binding; settings: Eterna round: R107; input ligand: none
measurement-kind: apparent KD of K4 kissing-loop reporter (µM)
Give just the numeric value; µM need not be written.

{"columns": ["sequence-chain", "observed-result"],
 "data": [
  ["GCCGUACGCAUGGAUACCAGAGAUGUUAAUCUCGAUGCCAGUGAUGUUGGCUUUAGCAUACUCCCUUGGCAGCCAUGCGUACGGC", 0.292]
]}

-- ask I would be grateful if you could share the reported apparent KD of K4 kissing-loop reporter for CAUUAAACUCAAACUAUUGGGUUUACGUUCCGAGGACCGGUACGGCCGCCACUCGGUCGAUGCUAUACCAUACGAGUGAUGUUCG [theeternabot_sameState_KL_Trp_A_1] .
-- reply 0.502

-- ask Any idea what its apparent KD of K4 kissing-loop reporter is? The sequence is UGUCAUUGGUCUGAUACCAGUUGAUGACGAAUACGUCAACUGGAGUGAUGUUCCAAUAACAACCCUUGGCAGCAGACCGAUGACU [MAT - Same State Theophlline B - Mod of Eli - D3]
-- reply 0.53

-- ask Can you look up the measured apparent KD of K4 kissing-loop reporter of AGUGUUUGGUUAGAUACCAGCCGUCUGUGGAUAAUCCUCAGACCGCCAGUGAUGUUGGCAGGCCCUUGGCAGCUAACAGGACAGA [Ersoed] for me?
-- reply 0.275

-- ask What value of apparent KD of K4 kissing-loop reporter has been reported for the following sequence? CUCGAGUGAUGUUCGAUUAUUUAUACAGAUACCAGUGAAUUUUAACACCCUUGGCAGCUGGUAGUAUCGUUGUAAUUUACACAAG [JR_ExcTheophyA_Sub004]
-- reply 0.116

-- ask Item under review: GUAUCGCUAGGAGGAUAUUUCAUAUAAUAUAUAAAUGGAUAUACGGAGUGAUGUUCCGAUUUACGGAAAGAAGGCCUAGUGAUAC [FMN B 18] . Reported apparent KD of K4 kissing-loop reporter?
-- reply 0.214

-- ask Can you share its apparent KD of K4 kissing-loop reporter? I mean this sequence: UCUUUUGGCAUGGAUAGAAUGCCGACCGAUACCAGCAAAGUAGGAUGCCCUUGGCAGCGGAGUGAUGUUCCAUUGUCGCGGUUUG [theeternabot_exclusion_KL_Theo_A_48]
-- reply 0.0869

* * *

tested on: K4 kissing-loop RNA reporter; experiment: apparent KD of K4 kissing-loop reporter; higher = weaker reporter binding; conditions: Eterna round: R107; input ligand: tryptophan 2.4 mM;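 note: bound reporter read as fluorescence of individual clusters on recovered sequencing chips by microscopy, with normalized cluster intensities fitted with a binding model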
measurement-kind: apparent KD of K4 kissing-loop reporter (nM)
// return numeric value only (unit: nM, not printed)

-- ask What value of apparent KD of K4 kissing-loop reporter has been reported for the following sequence? UGUAUGUGAUUUGAUACCAGACCAGCUGGUGUUUCAAGAGUGAUGUUCUUGUAGGUUUGGGUCCCUUGGCAGCAAAUCGCAUACU [KL-SSTheoB15]
-- reply 131

-- ask Need apparent KD of K4 kissing-loop reporter of UGAUAGGACAGAAGGAGCGGUAGUGAUGUUACCAAAAGGAUAAGGUGUCAAAAGACACCCUACCAGGUAGGUCGCUGUCCUAUCU , thanks.
-- reply 109

-- ask If you can, please state the reported apparent KD of K4 kissing-loop reporter value of UUUCCAGAUAAGUGGGAACACUCCAUAACAGAGGAUAUCAGAGCGCUGAGAAGGCUGUUUAUCAGUGAUGUUGAUAGUGUGGAGU [FMN A SS t2a] .
-- reply 630

-- ask Fill in the blank: the reported apparent KD of K4 kissing-loop reporter of UGUCAUUGGUCGGCCGCCACUAGGACCGGGUAUAACCUAGUGAUGUUAGUAAGUACGGCCGCCACUAGGACCGGGACCGAUGACU [KL-SSTryp-B19 #DoubleAptamer] is ____.
-- reply 87.5

-- ask Query (sequence): UGACUGGAUGGAAGGAGCGCUAAACUCCUAGUGAUGUUAGGGAAAUGAGGCAAAGCCUCGAGGCAGGUAGGUCGCCAUCUAGUCU [FiskerMod 18 - Jieux - Same State - Arginine B] ; field requested: apparent KD of K4 kissing-loop reporter
-- reply 144

-- ask Consider the sequence shown here: UCUCAUCUCAGAAGGAGCGUGAGAGAAUAUUAGAAAUCGUCGAGUGAUGUUCGACGUCUCUCACAGGUAGGUCGCUGAGACGUCA [Arg B SS t9] What is its recorded apparent KD of K4 kissing-loop reporter?
-- reply 111

-- ask Would you kindly share the measured apparent KD of K4 kissing-loop reporter for AGAUUCGACACGGCCGCCACUUCCAGUGGCUGGUGUCAUGGUGCGCGUGAGUGAUGUUUAUGUGGAAGGACCGGGUGUUGAGUCU [KL-XTryp-B1 #analogue] ?
-- reply 1190

* * *

test system: MS2 coat protein; test: apparent KD of MS2 coat protein, switch ON state; designed switch direction (-1 OFF switch, 1 ON switch): -1; higher = weaker reporter binding; conditions: FMN input: 0 or 200 uM; Eterna round: R93 (includes R88 designs)
Classification field: TRUE = apparent KD of MS2 coat protein at or over 30 nM; FALSE = apparent KD of MS2 coat protein under 30 nM.

Take a look at these entries with their results.
{"columns": ["sequence-chain", "experimental-target", "discrete-label"],
 "data": [
  ["AAGAAGUCAGGAUAUGCUGCUCGUCACAAAAGUGAUGAGUAGCAGAAGGGACAUGAGGAUCACCCAUGUAAAAA [Opal 33]", "MS2 coat protein", "TRUE"],
  ["CAAGGUGGAGGAUAUACAUGAGGAUCACCCAUGUAAGGACAAUAAAUAAGAUGAAGAAGUAGAAGGCCACUCAA [e3-3]", "MS2 coat protein", "TRUE"],
  ["AAGAACUGAGGAUAUACAUGAGGAUCACCCAUGUAAAAGAAAGAAAGGGAAAAGAAAAGUAGAAGGCAGAAGAA [Menmaatre-setpenptah Ramesses XI]", "MS2 coat protein", "TRUE"]
]}

-- ask Given the entry AGUACUACAGGAUAUACGAGGGAGGUCCACGUGAACCUUAUACAUGAGGAUCACCCAUGUAGAAGGGUAGUACA [Ex2 Design 108: Super Stable 8] , answer whether its apparent KD of MS2 coat protein meets or surpasses 30 nM.
-- reply TRUE

-- ask For this sequence, is measured apparent KD of MS2 coat protein 30 nM or higher? AGUCAGAGAGGAUAUACAUGGAAAAAAAAAGUAAGAUCCCUACAUGAGGAUCACCCAUGUAGAAGGCUCUGACA [Ex2 Design 138: Sub-opt 2]
-- reply FALSE

-- ask # bool: apparent KD of MS2 coat protein of GAAAAACAUGAGGAUCACCCAUGUCAGGAUAUACAAAAAUAAAUAAAAAUAAAAUAAAGUAGAAGGGACAAAAG [Mat - Same state - Mayanna Mod - D110] >= 30 nM
-- reply TRUE
